# target_under_test: ovine COX-1 (Ovis aries)
# Sequence (P05979 25-600): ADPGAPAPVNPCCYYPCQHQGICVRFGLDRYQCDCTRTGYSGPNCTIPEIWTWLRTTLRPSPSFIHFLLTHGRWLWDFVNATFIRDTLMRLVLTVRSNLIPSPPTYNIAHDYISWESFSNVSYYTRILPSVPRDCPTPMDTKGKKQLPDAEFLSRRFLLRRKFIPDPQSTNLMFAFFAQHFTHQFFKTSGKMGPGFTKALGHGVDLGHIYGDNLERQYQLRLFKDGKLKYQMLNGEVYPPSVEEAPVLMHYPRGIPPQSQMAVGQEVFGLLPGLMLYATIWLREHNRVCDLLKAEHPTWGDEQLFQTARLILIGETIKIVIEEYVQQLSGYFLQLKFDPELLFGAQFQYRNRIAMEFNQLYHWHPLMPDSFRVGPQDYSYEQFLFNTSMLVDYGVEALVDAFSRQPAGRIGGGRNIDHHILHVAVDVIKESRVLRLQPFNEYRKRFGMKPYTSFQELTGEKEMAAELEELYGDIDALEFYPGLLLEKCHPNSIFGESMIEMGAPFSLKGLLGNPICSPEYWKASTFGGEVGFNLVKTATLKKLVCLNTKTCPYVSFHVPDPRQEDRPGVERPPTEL
Please go through the items and note down their pIC50.
The meaning of pIC50 here: minus log10 of the concentration in molar units.

input: Entry `COc1ccc2c(c1)c(CC(=O)Nc1ccccc1)c(C)n2C(=O)c1ccc(Cl)cc1` : reported pIC50 = ?
output: 5.22

input: Can you share its pIC50? I mean this molecule: `COc1ccc2c(c1)c(CC(=O)NCc1ccccc1)c(C)n2C(=O)c1ccc(Cl)cc1`
output: 5.30

input: Sample `COc1ccc2c(c1)c(CC(=O)Nc1ccc(F)c(Cl)c1)c(C)n2C(=O)c1ccc(Cl)cc1` — what was its pIC50?
output: 5.97

input: Query (molecule): `COc1ccc2c(c1)c(CC(=O)Nc1ccc(F)cc1)c(C)n2C(=O)c1ccc(Cl)cc1` ; field requested: pIC50
output: 5.30

input: Given `COc1ccc2c(c1)c(CC(=O)Nc1ccc([N+](=O)[O-])cc1)c(C)n2C(=O)c1ccc(Cl)cc1` , state its recorded pIC50.
output: 5.94

input: Consider the molecule shown here: `COc1ccc2c(c1)c(CC(=O)Nc1ccccc1Cl)c(C)n2C(=O)c1ccc(Cl)cc1` What is its recorded pIC50?
output: 5.34

input: Given the molecule `COc1ccc2c(c1)c(CC(=O)Nc1c(Cl)cccc1Cl)c(C)n2C(=O)c1ccc(Cl)cc1` , what is its reported pIC50?
output: 5.38

input: Tell me the measured pIC50 of `COc1ccc2c(c1)c(CC(=O)Nc1cccc(C)c1)c(C)n2C(=O)c1ccc(Cl)cc1` , please.
output: 5.33

----------
What Selectivity (ratio of IC50 for COX-1 to COX-2) was measured for each of the following?
# target_under_test: human recombinant COX-2 (Homo sapiens, UniProt P35354)
# Construct: purchased Cayman Chemicals, Ann Arbor, MI, USA
# assay_method_text: In vitro COX-2 colorimetric enzyme assay (Cayman kit, TMPD at 590 nm)
# Assay type: biochemical
# conditions_used: IC50 COX-1 divided by IC50 COX-2

input: Please look up its Selectivity (ratio of IC50 for COX-1 to COX-2): `COc1ccc2c(c1)c(CC(=O)Nc1ccc([N+](=O)[O-])cc1)c(C)n2C(=O)c1ccc(Cl)cc1`
output: 3.32

input: Bench note: what Selectivity (ratio of IC50 for COX-1 to COX-2) did `COc1ccc2c(c1)c(CC(=O)Nc1ccccc1Cl)c(C)n2C(=O)c1ccc(Cl)cc1` show?
output: 1.41

input: Report Selectivity (ratio of IC50 for COX-1 to COX-2) for `COc1ccc2c(c1)c(CC(=O)Nc1cccc(C)c1)c(C)n2C(=O)c1ccc(Cl)cc1` please.
output: 1.12

input: Selectivity (ratio of IC50 for COX-1 to COX-2) lookup needed for `COc1ccc2c(c1)c(CC(=O)Nc1ccc(F)c(Cl)c1)c(C)n2C(=O)c1ccc(Cl)cc1` , thanks.
output: 0.76

input: Need Selectivity (ratio of IC50 for COX-1 to COX-2) of `COc1ccc2c(c1)c(CC(=O)NCc1ccccc1)c(C)n2C(=O)c1ccc(Cl)cc1` , thanks.
output: 1.06

input: Which Selectivity (ratio of IC50 for COX-1 to COX-2) reading was recorded for the molecule `COc1ccc2c(c1)c(CC(=O)Nc1ccccc1)c(C)n2C(=O)c1ccc(Cl)cc1` ?
output: 2.04

input: Which value of Selectivity (ratio of IC50 for COX-1 to COX-2) has been reported for `COc1ccc2c(c1)c(CC(=O)Nc1c(Cl)cccc1Cl)c(C)n2C(=O)c1ccc(Cl)cc1` in the records?
output: 1.42

----------
# target_under_test: human recombinant COX-2 (Homo sapiens)
# Construct: purchased Cayman Chemicals, Ann Arbor, MI, USA
# Sequence (P35354 18-604): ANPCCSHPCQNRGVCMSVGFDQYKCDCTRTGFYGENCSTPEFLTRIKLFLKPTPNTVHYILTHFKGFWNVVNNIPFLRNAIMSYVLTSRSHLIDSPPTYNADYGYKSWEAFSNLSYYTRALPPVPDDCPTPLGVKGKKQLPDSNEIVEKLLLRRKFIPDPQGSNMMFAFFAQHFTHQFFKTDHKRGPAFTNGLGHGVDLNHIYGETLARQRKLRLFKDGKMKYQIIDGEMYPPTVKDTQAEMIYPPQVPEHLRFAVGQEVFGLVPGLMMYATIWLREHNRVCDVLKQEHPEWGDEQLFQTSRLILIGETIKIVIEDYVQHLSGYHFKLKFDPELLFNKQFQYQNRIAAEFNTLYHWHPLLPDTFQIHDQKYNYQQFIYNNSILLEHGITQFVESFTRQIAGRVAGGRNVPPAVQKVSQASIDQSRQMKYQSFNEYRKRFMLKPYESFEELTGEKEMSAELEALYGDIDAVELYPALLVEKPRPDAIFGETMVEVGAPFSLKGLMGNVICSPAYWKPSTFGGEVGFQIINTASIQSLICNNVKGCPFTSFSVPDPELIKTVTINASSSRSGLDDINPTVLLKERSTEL
# assay_method_text: In vitro COX-2 colorimetric enzyme assay (Cayman kit, TMPD at 590 nm)
# Type: biochemical
# conditions_used: human recombinant COX-2
# Procedure: The assay procedure was followed as per the manufacturer’s protocol with slight modifications. The screening kits consolidate ovine COX-1 as well as human recombinant COX-2 compounds to screen isozyme-specific inhibitors. The test investigates the peroxidase activity by projecting the presence of oxidized TMPD (N, N, N′, N′- tetramethyl-p-phenylenediamine) at 590 nm. The COX-2 selectivity was measured as a ratio of IC50 for COX-1 divided by COX-2 [15].
# if measured IC50 < 3 µM: 1  # else: 0

input: Dear reviewer, please state whether `COc1ccc2c(c1)c(CC(=O)Nc1cccc(C)c1)c(C)n2C(=O)c1ccc(Cl)cc1` has IC50 strictly beneath 3 µM.
output: 0

input: Is IC50 strictly under 3 µM for the entry `COc1ccc2c(c1)c(CC(=O)Nc1ccccc1Cl)c(C)n2C(=O)c1ccc(Cl)cc1` ?
output: 0

input: I'd appreciate it if you could check whether `COc1ccc2c(c1)c(CC(=O)Nc1ccc(F)c(Cl)c1)c(C)n2C(=O)c1ccc(Cl)cc1` has IC50 smaller than 3 µM.
output: 1

input: Lab note: IC50 threshold 3 µM. Does this molecule come in strictly under it? `COc1ccc2c(c1)c(CC(=O)NCc1ccccc1)c(C)n2C(=O)c1ccc(Cl)cc1`
output: 0
